- system.name: purified human IDO protein (Homo sapiens, UniProt P14902, E119G/P110S)
- Construct: 6-Histidine tag (C)
- Sequence (P14902 whole entry P110S/E119G): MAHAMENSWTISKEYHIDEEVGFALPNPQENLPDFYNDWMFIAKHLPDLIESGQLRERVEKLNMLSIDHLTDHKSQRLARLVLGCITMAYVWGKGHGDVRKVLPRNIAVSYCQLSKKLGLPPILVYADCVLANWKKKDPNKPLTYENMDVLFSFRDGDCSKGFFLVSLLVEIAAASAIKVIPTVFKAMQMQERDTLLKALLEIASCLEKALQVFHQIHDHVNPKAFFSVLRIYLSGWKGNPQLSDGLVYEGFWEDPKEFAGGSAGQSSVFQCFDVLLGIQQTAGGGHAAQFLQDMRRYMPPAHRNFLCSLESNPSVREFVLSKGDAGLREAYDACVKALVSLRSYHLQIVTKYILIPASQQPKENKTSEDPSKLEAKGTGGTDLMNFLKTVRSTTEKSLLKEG
- run.description: Enzymatic IDO assay (kynurenine formation, absorbance at 480 nm)
- protocol.conditions: recombinant human IDO, 200 μM L-tryptophan, pH 6.5; reported in ranges
pIC50: −log10 of the molar value.
test.readout: pIC50

{"smiles.representation": "Clc1ccccc1Cn1cncc1-c1ccccc1", "result": "> 4.70"}
{"smiles.representation": "COc1cccc(O)c1-c1c[nH]cn1", "result": "> 4.70"}
{"smiles.representation": "Clc1ccc(COc2cc(Cl)ccc2-c2c[nH]cn2)cc1", "result": "4.00 to 4.70"}
{"smiles.representation": "NC(=O)c1ccc(COc2ccccc2-c2c[nH]cn2)cc1", "result": "4.00 to 4.70"}
